The reported numbers originate from PubChem BioAssay (NCI).

Let's look at some molecules and their measured TGI.
# Tested on: HS 578T breast
# Assay Name: NCI tumour cell line growth inhibition, 48 h

What does the data say about its TGI? Entry: CCCC1NC(=O)C(CC(C)C)NC(=O)c2cccc(n2)C(=O)NC(CC(C)C)C(=O)NC(CCC)C(=O)NC(C(=O)OC)CCCCNC1=O (stereo unspecified)
> 100 µM

###

# Tested on: LXFL 529 NSCLC
# Assay Name: NCI tumour cell line growth inhibition, 48 h
Readout: TGI

Some entries whose results are on file:
CN/N=C(/Cc1occc(=O)c1O)C(=O)Nc1ccc(C)c(C)c1 ... > 100 µM
Cn1ncc(=S)[nH]c1=S ... > 100 µM
CN(C)CCCCN1CCc2c(n(C)c3ccccc23)C1=O ... 35.1 µM
Cc1cc2c(cc1C)NC(=O)C(NC(=O)/C=C/c1ccccc1)C=N2 (stereo not given) ... > 100 µM
C/C(=N\N=C(N)N)C(CN(CC(C)C)CC(C)C)C(=O)Nc1ccc(C)cc1C (stereo not given) ... > 100 µM

What does the data say about its TGI? Entry: O=C1C=CC(=O)c2c1ccc1c3ccccc3n(-c3ccccn3)c21
28.5 µM

What does the data say about its TGI? Entry: CN(C)c1nc(N(C)C)nc(N(C)C)n1
> 150 µM
